Test: Measurement of brain exposure
Assay type: in vivo
Conditions: male, obese Zucker fa/fa, rat, brain homogenate, oral; 10 mg/kg p.o.; brains collected at 2 hours post-dosing; read-out: brain homogenate exposure level
Where a name gives a salt, the structure may show the parent alone.
reportedProperty: concentration at 2 h

Exercise: Supply reported concentration at 2 h belonging to this compound: O[C@@H]1CCCC[C@H]1N1CCc2c(cc(-c3ccc(Cl)cc3)n2-c2ccccc2Cl)C1 (relative stereo) [entry 18, hydrochloride]
Key: > 500 nM
